test system: OVCAR-3 ovarian; assay: NCI-60 one-dose screen, 48 h; details: 10 µM
Compounds without any hit were thinned out: in the full panel of roughly 83,000, 20% have a hit. The source made the active and inactive calls. The calls were made as follows: active = growth percent below 10; inactive = the rest.
Your response should consist of one outcome taken from active, inactive

// below: answered compounds
COc1ccc(/C=C2\SC(=S)N(CCCN3CCOCC3)C2=O)c(OC)c1	inactive
Cc1ccc(S(=O)(=O)Oc2ccccc2-c2ccccc2)cc1	active
Clc1cc(Cl)c(Cl)c(-c2nc(-c3cccnc3)cs2)c1	inactive

Request: Tell me the recorded outcome of this test for Cc1ccc(Cl)cc1Nc1nc(C(F)(F)F)ccc1C(=O)N/N=C/c1c(Cl)cccc1Cl .
Result: active

Request: Just curious, what result did O=C(COCc1c(-c2ccccc2)no[n+]1[O-])Nc1nc(-c2ccc(Cl)cc2)cs1 get here?
Result: inactive
